# system-name: Ba/F3 stable cells (Homo sapiens, UniProt P00533, DUP771-773, cells depend on it)
# Construct: EC50 Ba/F3-EGFR H773-V774insNPH; other: Ba/F3-EGFR H773-V774insNPH cells, 72 h, CCK-8
# Sequence (P00533 with tags, fused parts or gaps DUP771-773): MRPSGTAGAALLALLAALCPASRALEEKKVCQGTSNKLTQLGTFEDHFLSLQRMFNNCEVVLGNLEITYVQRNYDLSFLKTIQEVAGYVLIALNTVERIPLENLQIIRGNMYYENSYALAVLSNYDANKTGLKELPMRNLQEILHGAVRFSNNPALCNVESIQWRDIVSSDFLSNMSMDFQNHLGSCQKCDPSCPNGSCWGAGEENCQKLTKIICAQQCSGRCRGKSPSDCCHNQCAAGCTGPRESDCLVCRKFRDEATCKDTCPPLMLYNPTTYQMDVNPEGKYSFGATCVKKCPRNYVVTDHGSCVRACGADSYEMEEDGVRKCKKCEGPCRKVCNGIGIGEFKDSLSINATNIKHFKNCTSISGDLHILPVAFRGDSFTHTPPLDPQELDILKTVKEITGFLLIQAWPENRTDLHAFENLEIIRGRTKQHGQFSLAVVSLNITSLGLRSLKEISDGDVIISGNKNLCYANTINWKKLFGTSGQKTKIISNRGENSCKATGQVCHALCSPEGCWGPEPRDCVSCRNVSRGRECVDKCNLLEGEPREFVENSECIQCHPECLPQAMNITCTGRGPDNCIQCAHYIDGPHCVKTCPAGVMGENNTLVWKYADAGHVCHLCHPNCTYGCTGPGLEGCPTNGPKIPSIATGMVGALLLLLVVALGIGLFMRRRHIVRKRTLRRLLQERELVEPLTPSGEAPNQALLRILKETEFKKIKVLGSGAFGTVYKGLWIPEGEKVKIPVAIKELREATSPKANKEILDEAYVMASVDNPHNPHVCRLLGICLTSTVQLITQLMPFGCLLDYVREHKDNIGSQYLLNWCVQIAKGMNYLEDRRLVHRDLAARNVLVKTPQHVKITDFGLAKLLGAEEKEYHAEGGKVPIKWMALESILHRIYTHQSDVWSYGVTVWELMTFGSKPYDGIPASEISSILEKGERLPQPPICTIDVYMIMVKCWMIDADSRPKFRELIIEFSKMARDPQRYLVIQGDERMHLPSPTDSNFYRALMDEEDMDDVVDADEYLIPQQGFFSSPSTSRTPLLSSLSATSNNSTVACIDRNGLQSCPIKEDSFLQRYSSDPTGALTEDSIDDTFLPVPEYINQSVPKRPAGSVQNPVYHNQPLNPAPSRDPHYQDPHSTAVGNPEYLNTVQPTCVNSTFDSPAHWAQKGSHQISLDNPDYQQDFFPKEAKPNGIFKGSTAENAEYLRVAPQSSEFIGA
# protocol-description: EC50 assay: Ba/F3 stable cell proliferation (CCK-8, 72 h)
# run-parameters: Ba/F3-EGFR H773-V774insNPH cells
pEC50: −log10 of the molar value.
As shown below, each of these compounds has a reported pEC50 value.

C=CC(=O)N1CCC(Oc2cc3c(C(=O)NCc4ccc(F)cc4)ncnc3cc2OC)CC1 = < 6.00
C=CC(=O)N[C@H]1C[C@@H](Oc2cc3c(Nc4cccc5ccccc45)ncnc3cc2OC)C1 = ≥ 6.70
C#CC(=O)NC1CC(Oc2cc3c(Nc4ccc(Cl)c(Cl)c4F)ncnc3cc2OC)C1 (stereo not drawn) = ≥ 6.70

Input line: Please give measured pEC50 of the following entry: C=CC(=O)N1CCC(Oc2cc3c(NCc4cc(F)cc(Cl)c4)ncnc3cc2OC)CC1
Output line: 6.00 to 6.70

Input line: Please give measured pEC50 of the following entry: C=CC(=O)N1CCC(Oc2c(OC)cc3ncnc4c3c2N(C)C(=O)N4c2ccc(Cl)c(Cl)c2F)CC1
Output line: 6.00 to 6.70

Input line: Please give measured pEC50 of the following entry: C=CC(=O)N1CCC(Oc2cc3c(Nc4nc5cc(Cl)ccc5o4)ncnc3cc2OC)CC1
Output line: < 6.00

Input line: Please give measured pEC50 of the following entry: C=CC(=O)N1C2CCCC1CC(Oc1cc3c(Nc4cccc5ccccc45)ncnc3cc1OC)C2 (stereo not drawn)
Output line: ≥ 6.70

Input line: Please give measured pEC50 of the following entry: C=CC(=O)N1CC(c2cc3c(Nc4ccc(Cl)c(Cl)c4F)ncnc3cc2OCCO)C1
Output line: ≥ 6.70

Input line: Please give measured pEC50 of the following entry: COc1cc2ncnc(Nc3ccc(Cl)c(Cl)c3F)c2cc1C1CN(C#N)C1
Output line: < 6.00

Input line: Please give measured pEC50 of the following entry: COc1cc2ncnc(Nc3ccc(Cl)c(Cl)c3F)c2cc1OC1CCCN(C#N)C1 (stereo not drawn)
Output line: 6.00 to 6.70

Input line: Please give measured pEC50 of the following entry: COc1cc2ncnc(Nc3ccc(Cl)c(Cl)c3F)c2cc1OC1CC(NC(=O)/C=C/CN(C)C)C1 (stereo not drawn)
Output line: 6.00 to 6.70

Input line: Please give measured pEC50 of the following entry: C=CC(=O)N1CC(c2ccc3ncnc(Nc4ccc(Cl)c(Cl)c4F)c3c2)C1
Output line: 6.00 to 6.70

Input line: Please give measured pEC50 of the following entry: C=CS(=O)(=O)N1CCC(Oc2c(OC)cc3ncnc4c3c2NC(=O)N4c2ccc(Cl)c(Cl)c2F)CC1
Output line: ≥ 6.70

###

As shown below, each of these compounds has a reported pEC50 value.
# system-name: Ba/F3 stable cells (Homo sapiens, UniProt P00533, T790M/L858R, cells depend on it)
# Construct: EC50 Ba/F3-EGFR L858R-T790M; other: Ba/F3-EGFR L858R-T790M cells, 72 h, CCK-8
# Sequence (P00533 whole entry T790M/L858R): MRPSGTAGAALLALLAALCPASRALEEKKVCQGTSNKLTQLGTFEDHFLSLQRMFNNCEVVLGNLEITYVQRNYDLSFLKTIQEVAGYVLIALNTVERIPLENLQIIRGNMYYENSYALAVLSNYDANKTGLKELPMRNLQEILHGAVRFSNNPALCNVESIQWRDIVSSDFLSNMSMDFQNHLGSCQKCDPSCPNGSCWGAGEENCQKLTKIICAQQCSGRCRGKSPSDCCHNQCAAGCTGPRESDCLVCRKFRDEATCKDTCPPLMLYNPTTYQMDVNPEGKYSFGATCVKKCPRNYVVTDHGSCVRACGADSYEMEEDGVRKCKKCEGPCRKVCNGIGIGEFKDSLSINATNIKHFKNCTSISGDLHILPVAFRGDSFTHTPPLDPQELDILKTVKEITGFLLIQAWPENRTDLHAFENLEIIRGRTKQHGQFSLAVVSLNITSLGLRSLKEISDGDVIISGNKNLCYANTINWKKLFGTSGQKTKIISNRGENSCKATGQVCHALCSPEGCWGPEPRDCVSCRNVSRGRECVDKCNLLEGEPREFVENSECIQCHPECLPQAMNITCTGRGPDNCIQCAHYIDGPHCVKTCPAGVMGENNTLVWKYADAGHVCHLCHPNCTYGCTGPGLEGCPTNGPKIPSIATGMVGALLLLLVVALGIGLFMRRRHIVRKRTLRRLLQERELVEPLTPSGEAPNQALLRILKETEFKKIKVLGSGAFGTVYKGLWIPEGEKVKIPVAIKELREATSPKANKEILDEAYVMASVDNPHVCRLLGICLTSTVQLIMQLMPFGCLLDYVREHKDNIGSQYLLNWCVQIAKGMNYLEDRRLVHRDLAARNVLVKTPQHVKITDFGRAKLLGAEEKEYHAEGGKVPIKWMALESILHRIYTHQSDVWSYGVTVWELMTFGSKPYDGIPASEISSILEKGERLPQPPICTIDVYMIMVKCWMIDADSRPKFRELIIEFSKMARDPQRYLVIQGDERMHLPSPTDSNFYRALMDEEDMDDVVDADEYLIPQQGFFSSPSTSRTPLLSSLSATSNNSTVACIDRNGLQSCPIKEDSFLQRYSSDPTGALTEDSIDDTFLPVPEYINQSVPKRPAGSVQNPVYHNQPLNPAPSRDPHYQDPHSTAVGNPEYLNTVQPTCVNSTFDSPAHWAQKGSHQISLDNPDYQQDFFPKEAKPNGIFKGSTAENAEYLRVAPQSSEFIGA
# protocol-description: EC50 assay: Ba/F3 stable cell proliferation (CCK-8, 72 h)
# run-parameters: Ba/F3-EGFR L858R-T790M cells
pEC50: −log10 of the molar value.

C#CC(=O)N1CCC=C(c2cc3c(Nc4ccc(Cl)c(Cl)c4F)ncnc3cc2OC)C1 = ≥ 6.70

Input line: Please give measured pEC50 of the following entry: C=CC(=O)N1CCC(Oc2cc3c(Nc4ccc5c(c4)CCC5)ncnc3cc2OC)CC1
Output line: 6.00 to 6.70

Input line: Please give measured pEC50 of the following entry: C=CC(=O)N[C@H]1CC[C@@H](Oc2cc3c(Nc4ccc(Cl)c(Cl)c4F)ncnc3cc2OC)CC1
Output line: < 6.00

Input line: Please give measured pEC50 of the following entry: C=CC(=O)N1CC(c2cc3c(Nc4ccc(Cl)c(Cl)c4F)ncnc3cc2OCCN2CCN(C)CC2)C1
Output line: ≥ 6.70

Input line: Please give measured pEC50 of the following entry: C=CC(=O)N1CCC(Oc2cc3c(NCc4ccccc4F)ncnc3cc2OC)CC1
Output line: 6.00 to 6.70

Input line: Please give measured pEC50 of the following entry: C=CC(=O)N1CCC(Oc2cc3c(Nc4ccc5c(c4)CCN5)ncnc3cc2OC)CC1
Output line: < 6.00

Input line: Please give measured pEC50 of the following entry: COc1cc2ncnc(Nc3ccc(Cl)c(Cl)c3F)c2cc1OC1CC(N(C)C#N)C1 (stereo not shown)
Output line: < 6.00

Input line: Please give measured pEC50 of the following entry: C=C(F)C(=O)N1CC(c2cc3c(Nc4ccc(Cl)c(Cl)c4F)ncnc3cc2OC)C1
Output line: < 6.00

Input line: Please give measured pEC50 of the following entry: C=CC(=O)N1CCC(Oc2c(OC)cc3ncnc4c3c2N(C)C(=O)N4c2ccc(Cl)c(Cl)c2F)CC1
Output line: < 6.00
